Origin of the recorded values: patent US20030129672A1

molecular target: UniProt P45452; assay: Fluorigenic peptide-1 substrate based assay with and without acetohydroxamic acid, MMP-13CD; assay type: biochemical; settings: MMP-13CD, FP1 substrate, 0 mM acetohydroxamic acid; read-out: Without AcNHOH IC50
MEASURE: IC50 (µM)

Worked set:
So, Cc1c(-c2ccc(-n3ccnc3)cc2)[nH][nH]c1=O [Entry 5] ? Its IC50 was 9.5

Form field IC50, entry Nc1ccc(-c2ccc(S(N)(=O)=O)cc2)cc1 [Entry 1] : 34

According to the records, this molecule NS(=O)(=O)c1ccc(-c2ccc([N+](=O)O)cc2)cc1 [Entry 2] displays IC50 of 84

So, COc1ccc(NC(=O)Nc2ccc3nc(C)cc(N)c3c2)cc1 [Entry 3] ? Its IC50 was 126

P = Cc1cc(O)nc(SCc2ccc(Cl)cc2)n1 [Entry 4]
Q = COc1ccc(C(=O)NCc2cccnc2)cc1C(=O)NCc1cccnc1 [Entry 7]
R = CCOC(=O)/C=C/c1ccc(-n2ccnc2)cc1 [Entry 6]
Q. Sort ascending by IC50. Lab note: final answer is the ordered label list.
A. R, Q, P
(R: 17 µM, Q: 27 µM, P: 64 µM)

---

molecular target: UniProt:P45452; test: Fluorigenic peptide-1 substrate based assay with and without acetohydroxamic acid, MMP-13CD; assay type: biochemical; conditions: MMP-13CD, FP1 substrate, 15 mM acetohydroxamic acid (1 Kd); read-out: With AcNHOH IC50
MEASURE: IC50 (µM)

Measured IC50 of CCOC(=O)/C=C/c1ccc(-n2ccnc2)cc1 : 14

1 = NS(=O)(=O)c1ccc(-c2ccc([N+](=O)O)cc2)cc1
2 = Cc1cc(O)nc(SCc2ccc(Cl)cc2)n1
3 = COc1ccc(C(=O)NCc2cccnc2)cc1C(=O)NCc1cccnc1
Q. Ascending by IC50, please: list the compounds accordingly. List each label, following the requested order.
A. 1, 2, 3
